# protocol: Area under concentration time curve in plasma was determined upon peroral dose at 1.0 mg/kg in male Beagle dogs (n=2)
# Format: ADME, organism-based, Canis lupus familiaris
# Set-up: dose 1 mg/kg, route oral
# experimentalParameters: dog, in vivo, po
Entries and their measured AUC follow.

compound | AUC
NCc1ccc(Cl)cc1CNC(=O)[C@@H]1CCCN1C(=O)C1(O)c2ccccc2-c2ccncc21 (stereo in doubt; form 2) | 24 µM·h
NCc1ccc(Cl)cc1CNC(=O)[C@@H]1CCCN1C(=O)C1(O)c2ccccc2-c2cccnc21 (single isomer, unassigned; form 2) | 2.8 µM·h
NCc1ccc(Cl)cc1CNC(=O)[C@@H]1CCCN1C(=O)C1(O)c2cc(Cl)ccc2-c2ncccc21 (single isomer, unassigned) | 1.7 µM·h

Provenance of the data: ChEMBL document CHEMBL1145209
